# Assay Protocol: Comparison dissolution trials in water and biorelevant media
# Type: physicochemical
# Test Settings: thermodynamic from solid; Water, 37° C., 2 h; read-out: Solubility (mg/mL) 2 h
Measured solubility at 2 h of individual entries
Numbers only; they are read as mg/mL.

Chemical String: Cc1ccc(NC(=O)N2CC[C@@H](CC(F)(F)F)C2)cc1-c1cc(N[C@H](C)CO)nc(N2CCOCC2)c1
solubility at 2 h, mg/mL: 0.004

Shifting focus to the molecule that follows.
Consider the molecule `Cc1ccc(NC(=O)N2CC[C@@H](CC(F)(F)F)C2)cc1-c1cc(N[C@H](C)CO)nc(N2CCOCC2)c1.Cl` and give its measured solubility at 2 h.
1.36

###

# Assay Protocol: Comparison dissolution trials in water and biorelevant media
# Assay type: physicochemical
# Test Settings: thermodynamic from solid; FeSSIF, 37° C., 2 h; read-out: Solubility (mg/mL) 2 h
Attribute Measured: solubility at 2 h (mg/mL)
Numbers only; they are read as mg/mL.

Chemical String: Cc1ccc(NC(=O)N2CC[C@@H](CC(F)(F)F)C2)cc1-c1cc(N[C@H](C)CO)nc(N2CCOCC2)c1
Attribute Measured: solubility at 2 h
Unit Info: mg/mL
Endpoint Result: 0.17

Consider the compound `Cc1ccc(NC(=O)N2CC[C@@H](CC(F)(F)F)C2)cc1-c1cc(N[C@H](C)CO)nc(N2CCOCC2)c1.Cl` and give its measured solubility at 2 h.
0.2

###

# Assay Protocol: Solubility of Compound 1 in solvents
# Type: physicochemical
# Test Settings: acetone, organic solvent or mixture
Attribute Measured: solubility

Consider the compound `Cc1ccc(NC(=O)N2CC[C@@H](CC(F)(F)F)C2)cc1-c1cc(N[C@H](C)CO)nc(N2CCOCC2)c1` and give its measured solubility.
> 100 mg/mL

###

# Assay Protocol: Thermodynamic solubility in 13 solvents at RT and 50° C. by UPLC
# Assay type: physicochemical
# Test Settings: MTBE, 50 °C, organic solvent or mixture, thermodynamic from solid, MTBE, 50° C.; read-out: Solubility at 50° C.(mg/mL)
Attribute Measured: solubility (mg/mL)
Numbers only; they are read as mg/mL.

Consider the molecule Cc1ccc(NC(=O)N2CC[C@@H](CC(F)(F)F)C2)cc1-c1cc(N[C@H](C)CO)nc(N2CCOCC2)c1.Cl [Compound 2] and give its measured solubility.
0.01

###

# Assay Protocol: Solubility of Compound 1 in solvents
# Type: physicochemical
# Test Settings: n-heptane, organic solvent or mixture
Attribute Measured: solubility

Consider the compound Cc1ccc(NC(=O)N2CC[C@@H](CC(F)(F)F)C2)cc1-c1cc(N[C@H](C)CO)nc(N2CCOCC2)c1 [Compound 1] and give its measured solubility.
< 1000 µg/mL

###

# Assay Protocol: Solubility of Compound 1 in solvents
# Format: physicochemical
# Test Settings: ethanol, organic solvent or mixture
Attribute Measured: solubility

Consider the compound `Cc1ccc(NC(=O)N2CC[C@@H](CC(F)(F)F)C2)cc1-c1cc(N[C@H](C)CO)nc(N2CCOCC2)c1` and give its measured solubility.
> 100 mg/mL

###

# Assay Protocol: Comparison dissolution trials in water and biorelevant media
# Type: physicochemical
# Test Settings: thermodynamic from solid; Water, 37° C., 24 h; read-out: Solubility (mg/mL) 24 h
# Procedure: Comparison dissolution trials were performed on Compounds 1 and 2. About 20 mg of each sample was weighed into a sample vial and then 4 mL of media was added to make a suspension. All suspensions were shaken at 37° C. with a rate of 200 rpm. […] He pH of the filtrate was measured, and the filter cake was analyzed by XRPD. […] In biorelevant dissolution media FaSSIF and FeSSIF, the solubility of the Compound 1 and Compound 2 were similar.
Attribute Measured: solubility at 24 h (mg/mL)
Numbers only; they are read as mg/mL.

Compound: Cc1ccc(NC(=O)N2CC[C@@H](CC(F)(F)F)C2)cc1-c1cc(N[C@H](C)CO)nc(N2CCOCC2)c1 [Compound 1]
Unit Info: mg/mL
solubility at 24 h: 0.009

Consider the compound Cc1ccc(NC(=O)N2CC[C@@H](CC(F)(F)F)C2)cc1-c1cc(N[C@H](C)CO)nc(N2CCOCC2)c1.Cl [Compound 2] and give its measured solubility at 24 h.
2.49

Numbers sourced from patent US12692248B2.
